tested on: BCL-XL (Homo sapiens, UniProt Q07817)
Construct: endogenous in cells; host or cells: MOLT-4
Sequence (Q07817 whole entry): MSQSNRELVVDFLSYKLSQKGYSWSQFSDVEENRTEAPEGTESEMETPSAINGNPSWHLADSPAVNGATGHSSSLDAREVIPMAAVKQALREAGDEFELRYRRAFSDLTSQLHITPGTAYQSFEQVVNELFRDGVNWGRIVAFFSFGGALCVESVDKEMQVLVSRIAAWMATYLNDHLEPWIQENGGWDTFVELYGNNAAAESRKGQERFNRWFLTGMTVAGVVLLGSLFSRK
protocol summary: BCL-XL degradation assay, western blot in MOLT-4 cells, 16 h
Assay type: cell-based
condition: western blot, MOLT-4 cells, 16 h; read-out: Bcl-xL WB in MOLT-4 degradation 16 h: Mean external-Abs DC50
assay endpoint: DC50

// query Entry "Cc1ncsc1-c1ccc([C@@H](CC(=O)N(C)CCCC(=O)N2CCN(CC[C@H](CSc3ccccc3)Nc3ccc(S(=O)(=O)NC(=O)c4ccc(N5CCN(CC6=C(c7ccc(Cl)cc7)CCC(C)(C)C6)CC5)cc4)cc3S(=O)(=O)C(F)(F)F)CC2)NC(=O)[C@@H]2C[C@@H](O)CN2C(=O)[C@@H](NC(=O)C2(F)CC2)C(C)(C)C)cc1" has what DC50?
// result 100 to 500 nM

// query Entry "Cc1ncsc1-c1ccc([C@H](C)NC(=O)[C@@H]2C[C@@H](O)CN2C(=O)[C@@H](NC(=O)N2CC3(C2)CN(c2ccc(S(=O)(=O)NC(=O)c4nc(N5CCc6cccc(C(=O)Nc7nc8ccccc8s7)c6C5)ccc4-c4cnn(CC5CCCCC5)c4C)cc2)C3)C(C)(C)C)cc1" has what DC50?
// result < 10 nM

// query Entry "Cc1cc(N(CCN(C)C(=O)CCCC(=O)N[C@H](C(=O)N2C[C@H](O)C[C@H]2C(=O)N[C@@H](C)c2ccc(-c3scnc3C)cc2)C(C)(C)C)c2ccc(-c3cnn(CC4CCCCC4)c3C)c(C(=O)O)n2)nnc1Nc1nc2ccccc2s1" has what DC50?
// result > 1000 nM

// query Entry "Cc1ncsc1-c1ccc(CNC(=O)[C@@H]2C[C@@H](O)CN2C(=O)[C@@H](NC(=O)C2(F)CC2)C(C)(C)C)c(OCCCCCC(=O)N(C)CC#Cc2cccc(F)c2OCCCc2sc(N3CCc4cccc(C(=O)Nc5nc6ccccc6s5)c4C3)nc2C(=O)O)c1" has what DC50?
// result > 1000 nM

// query Entry "Cc1ncsc1-c1ccc(CNC(=O)[C@@H]2C[C@@H](O)CN2C(=O)[C@@H](NC(=O)C2(F)CC2)C(C)(C)C)c(O[C@H]2C[C@H](C(=O)N3CCN(CC[C@H](CSc4ccccc4)Nc4ccc(S(=O)(=O)NC(=O)c5ccc(N6CCN(CC7=C(c8ccc(Cl)cc8)CCC(C)(C)C7)CC6)cc5)cc4S(=O)(=O)C(F)(F)F)CC3)C2)c1" has what DC50?
// result > 1000 nM

// query Entry "Cc1cc([C@@H](C(=O)N2C[C@H](O)C[C@H]2C(=O)NCc2ccc(-c3scnc3C)cc2OCC(=O)N2CCN(CC[C@H](CSc3ccccc3)Nc3ccc(S(=O)(=O)NC(=O)c4ccc(N5CCN(CC6=C(c7ccc(Cl)cc7)CCC(C)(C)C6)CC5)cc4)cc3S(=O)(=O)C(F)(F)F)CC2)C(C)C)on1" has what DC50?
// result 10 to 100 nM

// query Entry "Cc1ncsc1-c1ccc(CNC(=O)[C@@H]2C[C@@H](O)CN2C(=O)[C@@H](NC(=O)C2(F)CC2)C(C)(C)C)c(OCCCCCS(=O)(=O)NC(=O)c2nc(N3CCc4cccc(C(=O)Nc5nc6ccccc6s5)c4C3)ccc2-c2cnn(CC3CCCCC3)c2C)c1" has what DC50?
// result < 10 nM

Values were extracted from patent US20250197387A1.
